Please respond with reported pIC50 for every item in the list.
- Tested on: Trypanosoma cruzi
- EXPERIMENTAL PROTOCOL: GSK_TCAKS: pIC50 H2C9 Imaging: H9c2 Host Cardiomyocytes. […] Cells were then washed once with PBS before infection. T. cruzi trypomastigotes, collected at days 5 to 8 after infection from LLC-MK2 parasite infected cultures, were allowed to swim out for 4h at 37C from a centrifuged pellet (2,500 rpm/10 min/room temperature). Trypomastigotes were then collected and counted in a CASY Cell Counter. Trypomastigotes, in supplemented DMEM, were added to H9c2 cultures in a multiplicity of infection of 1 and incubated for 18 h. Cells were washed once with PBS before incubation of the infected H9c2 monolayer with trypsin (Life-Technologies) to detach cells from the flask. Cells were counted in a CASY Cell Counter using a 150 um capillary and their density set at 5 * 10^4 cells per mL in supplemented assay DMEM. Infected H9c2 were dispensed into 384-well poly-lysine coated assay plates at 50uL per well using a Multidrop Combi dispenser. After seeding them, the plates were incubated at 37C, 5% CO2 for 72h. Cultures were then fixed and stained by addition of 50 uL of a solution containing 8% formaldehyde and 4 uM DRAQ5 DNA dye (BioStatus, UK) per well. […] Five images were collected per well for reliable statistical analysis. Automated image analysis was performed with a script developed on Acapella High Content Imaging and Analysis Software (PerkinElmer). Output: Number of H9c2 Host Cardiomyocytes nuclei to determine drug-related cytotoxicity.
- Assay type: functional, organism-based, Rattus norvegicus
- CONDITION PARAMETERS: H9c2, 4 h
On this scale, pIC50 is minus log10 of a concentration expressed in M (mol/L).

Enquiry: What measured pIC50 goes with "Cc1cccc(N2CCCN(Cc3c[nH]c4ccccc34)CC2)n1" ?
Return: 5.60

Enquiry: Same question, "Cc1c(Nc2cc(C3CC3)n[nH]2)ccc(C#N)c1Cl" this time
Return: 5.00

Enquiry: Same question, "Cc1nc(N2CCC(C(=O)N3CCC(O)(c4cccnc4)CC3)CC2)nc2ccc(C(C)C)cc12" this time
Return: 4.40

Enquiry: Same question, "Cc1cc(Nc2cc(C3CC3)[nH]n2)nc(N2CCC[C@H]2C(N)=O)n1" this time
Return: 6.90

Enquiry: Same question, "O=C(Nc1nc(-c2ccccn2)cs1)c1ccccc1-n1cnnn1" this time
Return: 5.30

Enquiry: Same question, "O=C(Nc1cccc(F)c1)N1CCC(Oc2cccc(-c3cccnc3)c2)CC1" this time
Return: 4.60

Enquiry: Same question, "Cc1nn(-c2nc(N)nc(-c3ccccn3)n2)c(N)c1-c1ccccc1" this time
Return: 4.90

Enquiry: Same question, "CCS(=O)(=O)c1cccc(C(=O)Nc2nc(-c3ccccn3)cs2)c1" this time
Return: 5.40

Enquiry: Same question, "Cc1cc(C)n(-c2nc(NC(C)(C)C)nc(N3CCOCC3)n2)n1" this time
Return: 5.90
